# subject.of.test: Carbonic anhydrase 9 (Homo sapiens, UniProt Q16790)
# protocol.text: Inhibition of recombinant human carbonic anhydrase 9 incubated 15 mins prior to testing by CO2 hydration based stopped-flow assay
Ki less than 40 nM is 1; Ki greater than or equal to 40 nM is -1.

Some solved cases for reference:
compound.string: O=c1ccc2cccc(F)c2[nH]1
subject.of.test: Carbonic anhydrase 9 (Homo sapiens, UniProt Q16790)
label.value: -1
--
compound.string: O=c1ccc2ccccc2[te]1
subject.of.test: Carbonic anhydrase 9 (Homo sapiens, UniProt Q16790)
label.value: -1
--
compound.string: Cc1ccc2[se]c(=S)ccc2c1
subject.of.test: Carbonic anhydrase 9 (Homo sapiens, UniProt Q16790)
label.value: -1
--
compound.string: Cn1c(=[Se])ccc2ccccc21
subject.of.test: Carbonic anhydrase 9 (Homo sapiens, UniProt Q16790)
label.value: -1
--
compound.string: Cn1c(=O)ccc2ccccc21
subject.of.test: Carbonic anhydrase 9 (Homo sapiens, UniProt Q16790)
label.value: -1

Field: below-cutoff. Rule: recorded Ki strictly less than 40 nM. Subject: `O=c1ccc2cccc(Br)c2[nH]1`
1

Field: below-cutoff. Rule: recorded Ki strictly less than 40 nM. Subject: `O=c1ccc2cccc(Cl)c2[nH]1`
1

Field: below-cutoff. Rule: recorded Ki strictly less than 40 nM. Subject: `O=c1ccc2ccccc2[se]1`
1

Field: below-cutoff. Rule: recorded Ki strictly less than 40 nM. Subject: `Cc1ccc2[se]c(=O)ccc2c1`
-1

Field: below-cutoff. Rule: recorded Ki strictly less than 40 nM. Subject: `Cc1ccc2[nH]c(=O)ccc2c1`
-1

Field: below-cutoff. Rule: recorded Ki strictly less than 40 nM. Subject: `[Se]=c1ccc2ccccc2[nH]1`
-1

* * *

# subject.of.test: Carbonic anhydrase 12 (Homo sapiens, UniProt O43570)
# Sequence (O43570 whole entry): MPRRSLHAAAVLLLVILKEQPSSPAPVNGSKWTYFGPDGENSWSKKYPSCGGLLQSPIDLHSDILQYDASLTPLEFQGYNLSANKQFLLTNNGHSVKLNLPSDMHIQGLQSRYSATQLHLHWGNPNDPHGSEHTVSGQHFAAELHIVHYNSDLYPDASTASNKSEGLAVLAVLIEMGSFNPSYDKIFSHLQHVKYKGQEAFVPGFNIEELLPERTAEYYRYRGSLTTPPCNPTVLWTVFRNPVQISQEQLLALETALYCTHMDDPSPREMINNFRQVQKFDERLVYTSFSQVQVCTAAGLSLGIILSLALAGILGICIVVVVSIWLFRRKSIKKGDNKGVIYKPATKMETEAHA
# protocol.text: Inhibition of recombinant human carbonic anhydrase 12 incubated 6 h prior to testing by CO2 hydration based stopped-flow assay
experimental.readout: pKi
Reminder that pKi is minus the log10 of a molar concentration.

Note down pKi recorded for `Cn1c(=O)ccc2ccccc21`
7.08
